Test system: c-Abl (mouse);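 further: 11-residue human phosphosite peptides and single-mutation variants displayed on the E. coli surface, counted by deep sequencing, each peptide's frequency after selection divided by its frequency in the unselected input library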;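 further: frequency after pTyr selection over input frequency; kinase dosed for 20-30% of maximal phosphorylation in three min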
Assay Summary: phosphorylation enrichment, bacterial display (enrichment ratio); higher = better substrate or ligand; peptides without Tyr show the background
Returns the class for an entry based on its phosphorylation enrichment. Class ranges: low range = under 0.6, mid range = from 0.6 up to 0.8, high range = 0.8 and over

[Q] Assign a category based on measured phosphorylation enrichment for PNRILYRDFRQ [MYH7_Y715_G716R] and give only the class name.
[A] mid range

[Q] Which bin should I file PSQRRYLFFFS [PTEN_Y174_V175L_YF] under?
[A] high range

[Q] Tag the class for EKKKYYDTKIE [CASP5_Y104]
[A] mid range

[Q] Class label required: NVDGKYSYLKV [GRM3_Y478_G475D]
[A] low range

[Q] Category of HDHFGYRQSVT [CD55_Y245_R240H_YF] :
[A] mid range

[Q] Categorize the following entry: DPTFGYEDFTR [SESN2_Y323]
[A] mid range

[Q] Input YAKSVYWDNTL [NUP107_Y296_E298D] ; output its category
[A] low range

[Q] Into which category would you place VIESSYTSADG [DHCR7_Y382_C380S] ?
[A] mid range

[Q] Where would IGVGSYSVCKR [RPS6KA3_Y433] land among the classes by reported phosphorylation enrichment?
[A] low range

[Q] # classify by phosphorylation enrichment band: SHMVNYQPYRK [TEX37_Y25_D24N]
[A] low range

[Q] Category lookup for the sequence EQKKFSNAMKK [SCN5A_Y1495_Y1495S_YF]
[A] low range

[Q] Class? Entry: LDPDSYNKFEN [FOXC1_Y159_M161K]
[A] high range

[Q] Hi, small favor: classify RCYVYYYSYLL [PTEN_Y177_R173C] by its phosphorylation enrichment when you get a moment.
[A] high range

[Q] Band for TLQVMYGCDVG [HLA-B_Y123_S121V] ?
[A] high range

[Q] Exam item: assign ECIEFYELDKK [PMM2_Y145_R141C] to the correct category.
[A] high range

[Q] Would you mind sorting FFNSEYGELSE [FLT4_Y1337_YF] into the appropriate category?
[A] high range

[Q] Class for DWRQEYVLNES [TGM1_Y267] ?
[A] mid range

[Q] Classify this sequence: TARWEYMHSPS [CPOX_Y429]
[A] low range

[Q] Entry GSESDYIIMPN [SCARB1_Y133_V135I] belongs to which category?
[A] low range

[Q] Where would IRKVLYANNVM [ACTA1_Y296_D294V] land among the classes by reported phosphorylation enrichment?
[A] low range

[Q] For this sequence, which bin applies? TLGPFYPSRLF [CRYAA_Y18]
[A] mid range

[Q] Each sequence maps to one class by phosphorylation enrichment. Which class for KFGTNYRVGSS [CPO_Y278_YF] ?
[A] mid range

[Q] For AAETTYDKILK [GDNF_Y156] , which phosphorylation enrichment bin applies?
[A] low range

[Q] Lab note: sort VPVNGYQPVTA [ROR2_Y824_P828T] into the matching phosphorylation enrichment band.
[A] low range

[Q] Class (by measured phosphorylation enrichment) for QKPLDYYRVNL [GALE_Y104]
[A] high range

[Q] Field: class (phosphorylation enrichment) — entry: QLLIEYPPEEV [ZZZ3_Y670_K669E]
[A] high range

[Q] Where would DQLVKYGVNPG [TMPO_Y127] land among the classes by reported phosphorylation enrichment?
[A] low range

[Q] Hi, small favor: classify PRDGEYFTLQI [TP53_Y327_L323R] by its phosphorylation enrichment when you get a moment.
[A] high range

[Q] Would you mind sorting RMQLPYDSTWE [PDGFRB_Y589_P584R] into the appropriate category?
[A] high range

[Q] Would you mind sorting KWTVDYLGQVG [TYW5_Y48_S50G] into the appropriate category?
[A] mid range

[Q] GET /class?item= ANNEYYFRVCA
[A] high range

[Q] Hey, which category is SIKDKHVTALY [KCNH2_Y611_Y611H] in, do you know?
[A] low range

[Q] Assign a bin to LPKVSYMKAID [GLRA1_Y307_V308M]
[A] high range

[Q] Using the reported phosphorylation enrichment, which band applies to AGLVQYYMEHH [PTPN11_Y80_E76G] ?
[A] low range

[Q] Looking at KNDSKYVVKGN [KIT_Y823_N822K] , which class would you pick?
[A] low range

[Q] Pick a category. Item: YDGKDYIALNE [HLA-A_Y147]
[A] high range

[Q] Consider LSNFNYEQRGA [API5_Y497_G493S] . To which phosphorylation enrichment class does it belong?
[A] high range

[Q] Record KHTLSFVDVGT [SDHA_Y629_Y629F] — which class?
[A] low range

[Q] Returns: class label. Input: EDSEYYRAFEE [CASQ2_Y179_K180R]
[A] high range

[Q] Category of DRLASYLEKVR [KRT13_Y118] , please.
[A] low range

[Q] Which bin should I file DYSLKYPTDIP [APC_Y1183_A1184P] under?
[A] low range

[Q] # bin label for INNIDYFKNTT [FGFR2_Y656_K659N_YF]
[A] low range

[Q] Band assignment needed for LYEDHYLLGTS [ASS1_Y87_R86H] please.
[A] high range

[Q] Class for MPIPMYDGSQA [CARMIL1_Y637_A639G] ?
[A] mid range

[Q] Which band does IHFAIYFLKYS [ARMC9_Y107_L108F] fall in?
[A] high range
